- tgt: RNA-directed RNA polymerase (Hepacivirus hominis, UniProt O39930)
- Sequence (O39930 whole entry): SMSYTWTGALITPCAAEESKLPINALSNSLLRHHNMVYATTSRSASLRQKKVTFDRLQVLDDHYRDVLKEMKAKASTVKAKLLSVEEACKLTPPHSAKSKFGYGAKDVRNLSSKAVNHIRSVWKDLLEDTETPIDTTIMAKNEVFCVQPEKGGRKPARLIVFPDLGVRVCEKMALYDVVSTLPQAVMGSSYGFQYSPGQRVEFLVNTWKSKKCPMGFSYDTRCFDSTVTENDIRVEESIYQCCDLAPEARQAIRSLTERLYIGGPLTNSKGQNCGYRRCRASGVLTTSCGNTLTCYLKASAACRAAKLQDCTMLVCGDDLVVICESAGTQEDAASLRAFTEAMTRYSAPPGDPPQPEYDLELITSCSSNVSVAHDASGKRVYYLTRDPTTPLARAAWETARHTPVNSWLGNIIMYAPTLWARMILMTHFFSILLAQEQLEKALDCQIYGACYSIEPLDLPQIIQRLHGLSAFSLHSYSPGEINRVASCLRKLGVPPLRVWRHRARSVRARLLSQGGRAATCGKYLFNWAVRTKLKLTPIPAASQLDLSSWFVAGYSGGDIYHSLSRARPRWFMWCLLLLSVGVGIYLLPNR
- assay-comment: Inhibition of HCV 1a NS5B RNA polymerase
- Parameters: species or system Hepatitis C virus subtype 1a
pIC50: −log10 of the molar value.
endpoint: pIC50

CC(C)CCn1c(=O)c(C2=NS(=O)(=O)c3cc(O)ccc3N2)c(O)c2cccnc21    6.41

I. CCCOc1ccc2c(c1)S(=O)(=O)NC(c1c(O)c3cccnc3n(CCC(C)C)c1=O)=N2
II. CC(C)CCn1c(=O)c(C2=Nc3ccc(OCCN)cc3S(=O)(=O)N2)c(O)c2cccnc21
For the two items I and II , which reports the higher pIC50 value? Which one? Tell me its label.
II
(II: 6.20, I: 5.79)

A. CC(C)CCn1c(=O)c(C2=NS(=O)(=O)c3cc(NS(C)(=O)=O)ccc3N2)c(O)c2cccnc21
B. CC(C)CCn1c(=O)c(C2=NS(=O)(=O)c3cc(OCC(=O)O)ccc3N2)c(O)c2cccnc21
C. COc1ccc2c(c1)S(=O)(=O)NC(c1c(O)c3cccnc3n(Cc3ccccc3)c1=O)=N2
Order the entries by their reported pIC50, beginning at the minimum. As an answer, provide the labels arranged in the order called for.
C, B, A

----------
- tgt: RNA-directed RNA polymerase (Hepacivirus hominis, UniProt O39930)
- assay-comment: Inhibition of HCV 1a NS5B RNA polymerase
- Parameters: species or system Hepatitis C virus subtype 1a
endpoint: IC50 (nM)

Observe how each entry below is paired with its result.
CC(C)CCn1c(=O)c(C2=NS(=O)(=O)c3cc(NC(=O)C(F)(F)F)ccc3N2)c(O)c2cccnc21    906
COc1ccc2c(c1)S(=O)(=O)N=C(c1c(O)c3cccnc3n(CCC(C)C)c1=O)N2    1130

P. CC(C)CCn1c(=O)c(C2=NS(=O)(=O)c3cc(NS(=O)(=O)C(C)C)ccc3N2)c(O)c2cccnc21
Q. CC(C)CCn1c(=O)c(C2=Nc3ccc(NS(=O)(=O)c4ccccc4)cc3S(=O)(=O)N2)c(O)c2cccnc21
Which has the smaller recorded IC50, P or Q ? Which one? Tell me its label.
P

----------
- tgt: RNA-directed RNA polymerase (Hepacivirus hominis, UniProt O39930)
- assay-comment: Inhibition of HCV 1b NS5B RNA polymerase
- Parameters: species or system Hepatitis C virus subtype 1b
endpoint: IC50 (nM)

Observe how each entry below is paired with its result.
CC(C)CCn1c(=O)c(C2=NS(=O)(=O)c3cc(OCC(=O)O)ccc3N2)c(O)c2cccnc21    57
CCCCS(=O)(=O)Nc1ccc2c(c1)S(=O)(=O)NC(c1c(O)c3cccnc3n(CCC(C)C)c1=O)=N2    5

A. CC(C)CCn1c(=O)c(C2=Nc3ccc(NS(=O)(=O)c4ccccc4)cc3S(=O)(=O)N2)c(O)c2cccnc21
B. COc1ccc2c(c1)S(=O)(=O)NC(c1c(O)c3cccnc3n(Cc3ccccc3)c1=O)=N2
C. O=c1c(C2=NS(=O)(=O)c3ccc(O)cc3N2)c(O)c2cccnc2n1Cc1ccccc1
Order field: IC50 | Direction: descending (largest first) As an answer, provide the labels arranged in the order called for.
C, B, A
(C: 2510 nM, B: 76 nM, A: 7 nM)

----------
- assay-comment: Ratio of drug level in liver to plasma in rat after 8 hrs
- Format: ADME, organism-based
endpoint: Kp at 8 h
Lab note: jot down the number only; don't add units.

# input molecule: CC(C)CCn1c(=O)c(C2=Nc3ccc(OCC(N)=O)cc3S(=O)(=O)N2)c(O)c2cccnc21 ; wanted: its Kp at 8 h
54

----------
- Tested on: Hepatitis C virus
- assay-comment: Inhibition of HCV 1b replication in presence of 5% fetal calf serum
- Format: functional, organism-based, Hepatitis C virus subtype 1b
endpoint: EC50 (nM)

Observe how each entry below is paired with its result.
CC(C)CCn1c(=O)c(C2=Nc3ccc(NS(=O)(=O)c4ccccc4)cc3S(=O)(=O)N2)c(O)c2cccnc21    1690
CCCCS(=O)(=O)Nc1ccc2c(c1)S(=O)(=O)NC(c1c(O)c3cccnc3n(CCC(C)C)c1=O)=N2    1000

1. CC(C)CCn1c(=O)c(C2=NS(=O)(=O)c3cc(NS(=O)(=O)C(C)C)ccc3N2)c(O)c2cccnc21
2. CC(C)CCn1c(=O)c(C2=NS(=O)(=O)c3cc(NS(C)(=O)=O)ccc3N2)c(O)c2cccnc21
Which has the smaller recorded EC50, 1 or 2 ? Which one? Tell me its label.
2
